Provide the recorded MIC for the entries that follow.
- Test system: Staphylococcus aureus PB1505
- Construct: PB1505
- Experiment Summary: microbe, parasite or virus in culture
- Parameters: Broth microdilution MIC in cation-adjusted MHB-Ca2+, growth inhibition per EUCAST reading
- Details: PB1505, 16 h, replicate 2
Answer format: numeric, µg/mL implied, no suffix.

MIC for CCCCCCCCCC(=O)N[C@@H](Cc1c[nH]c2ccccc12)C(=O)N[C@H](CC(N)=O)C(=O)N[C@@H](CC(=O)O)C(=O)N[C@@H]1C(=O)NCC(=O)N[C@@H](CCCN)C(=O)N[C@@H](CC(=O)O)C(=O)N[C@H](C)C(=O)N[C@@H](CC(=O)O)C(=O)NCC(=O)N[C@H](CO)C(=O)N[C@@H]([C@H](C)CC(=O)O)C(=O)N[C@@H](CC(=O)c2ccccc2N)C(=O)O[C@@H]1C [Daptomycin] ?
2

Entry CC(=O)NC[C@H]1CN(c2ccc(N3CCOCC3)c(F)c2)C(=O)O1 [Linezolid] : reported MIC = ?
4

Which MIC reading was recorded for the molecule CCO/N=C(\C(=O)N[C@@H]1C(=O)N2C(C(=O)[O-])=C(Sc3nc(-c4cc[n+](C)cc4)cs3)CS[C@H]12)c1nsc(N)n1 [Ceftaroline] ?
0.5

What value of MIC has been recorded for this entry: CN[C@H](CC(C)C)C(=O)N[C@H]1C(=O)N[C@@H](CC(N)=O)C(=O)N[C@H]2C(=O)N[C@H]3C(=O)N[C@H](C(=O)N[C@H](C(=O)O)c4cc(O)cc(O)c4-c4cc3ccc4O)[C@H](O)c3ccc(c(Cl)c3)Oc3cc2cc(c3O[C@@H]2O[C@H](CO)[C@@H](O)[C@H](O)[C@H]2O[C@H]2C[C@](C)(N)[C@H](O)[C@H](C)O2)Oc2ccc(cc2Cl)[C@H]1O [Vancomycin]
2

---

- Tested on: Staphylococcus aureus PB0208
- Construct: PB0208
- Experiment Summary: microbe, parasite or virus in culture
- Parameters: species or system Staphylococcus aureus clinical blood isolates and ATCC 29213; Broth microdilution MIC in cation-adjusted Mueller-Hinton broth with 50 ug/mL CaCl2, EUCAST reading, 37 C
- Details: PB0208, 16 h, replicate MIC, MHB + 50 ug/mL CaCl2
- Protocol: MICs were measured in cation-adjusted Mueller-Hinton broth (MHB) supplemented with 50 μg/mL CaCl2 (MHB-Ca^2+) via broth microdilution in 96-well plates with an inoculum of ∼5 × 10^5 CFU per mL. Antibiotic test concentrations ranged from 0.0625 μg/mL to 32 μg/mL by 2-fold dilutions. Plates were incubated at 37°C for 16 h without shaking, and results were interpreted in accordance with European Committee on Antimicrobial Susceptibility Testing reading guidelines ([72]). […]
Quantity Measured: MIC (µg/mL)
Express it in µg/mL; write the number only.

I have this compound here, CN[C@H](CC(C)C)C(=O)N[C@H]1C(=O)N[C@@H](CC(N)=O)C(=O)N[C@H]2C(=O)N[C@H]3C(=O)N[C@H](C(=O)N[C@H](C(=O)O)c4cc(O)cc(O)c4-c4cc3ccc4O)[C@H](O)c3ccc(c(Cl)c3)Oc3cc2cc(c3O[C@@H]2O[C@H](CO)[C@@H](O)[C@H](O)[C@H]2O[C@H]2C[C@](C)(N)[C@H](O)[C@H](C)O2)Oc2ccc(cc2Cl)[C@H]1O [Vancomycin] , and I need its recorded MIC.
4

Report MIC for CCCCCCCCCC(=O)N[C@@H](Cc1c[nH]c2ccccc12)C(=O)N[C@H](CC(N)=O)C(=O)N[C@@H](CC(=O)O)C(=O)N[C@@H]1C(=O)NCC(=O)N[C@@H](CCCN)C(=O)N[C@@H](CC(=O)O)C(=O)N[C@H](C)C(=O)N[C@@H](CC(=O)O)C(=O)NCC(=O)N[C@H](CO)C(=O)N[C@@H]([C@H](C)CC(=O)O)C(=O)N[C@@H](CC(=O)c2ccccc2N)C(=O)O[C@@H]1C [Daptomycin] please.
1

I am curious: what MIC value has been reported for CC(=O)NC[C@H]1CN(c2ccc(N3CCOCC3)c(F)c2)C(=O)O1 [Linezolid] ?
4

Consider the compound shown here: CCO/N=C(\C(=O)N[C@@H]1C(=O)N2C(C(=O)[O-])=C(Sc3nc(-c4cc[n+](C)cc4)cs3)CS[C@H]12)c1nsc(N)n1 [Ceftaroline] What is its recorded MIC?
0.5
